- assayed.system: T1, human myostatin (mature, recombinant; R&D Systems) (human, UniProt O14793 267-375)
- T1 sequence: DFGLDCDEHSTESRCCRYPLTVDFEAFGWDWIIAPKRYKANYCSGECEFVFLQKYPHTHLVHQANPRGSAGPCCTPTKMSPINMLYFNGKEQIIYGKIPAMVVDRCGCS
- protocol.description: cell-based or functional assay
Reported ARE-luciferase IC50 by item:
Give the value, in units of pM, as a plain number.

Observe how each entry below is paired with its result.
binder="2524_C11 (designed binder) MGVSDVPRDLEVVAATPTSLLISWTLPHAGLAHYYRITYGETGGNSPVQEFTVPGRGVTATISGLKPGVDYTITVYAVTLTNSEIILYKPISINYRTEIDKPSQHHHHHH" reported_metric="ARE-luciferase IC50" value_units=pM readout_value=100
binder="2987_B09 (designed binder) MGVSDVPRDLEVVAATPTSLLISWTLPHAGRAHYYRITYGETGGNSPVQEFTVPGRGVTATISGLKPGVDYTITVYAVTLTRSKIIHYMPISINYRTEIDKPSQHHHHHH" reported_metric="ARE-luciferase IC50" value_units=pM readout_value=10
binder="2987_B04 (designed binder) MGVSDVPRDLEVVAATPTSLLISWSLPYPGHLNYYRITYGETGGNSPVQEFTVPGRGVTATISGLKPGVDYTITVYAVTLTKSKIIHYMPISINYRTEIDKPSQHHHHHH" reported_metric="ARE-luciferase IC50" value_units=pM readout_value=120

Now, please, on to the next binder.
[in] May I ask what ARE-luciferase IC50 has been recorded for 2524_E10 (designed binder) MGVSDVPRDLEVVAATPTSLLISWSLPFAGHLNYYRITYGETGGNSPVQEFTVPGRGVTATISGLKPGVDYTITVYAVTLTRSKIIHYMPISINYRTEIDKPSQHHHHHH ?
[out] 90

Ref: patent US20170088602A1
